EXPERIMENT_DESCRIPTION: Antagonist activity at luxI in Escherichia coli harboring luxI-gfp gene assessed as inhibition of 3-oxo-C6-HSL-induced quorum sensing by green fluorescence protein reporter assay
MEASUREMENT_NAME: log10 of IC50 (log10 of the value in µM)

[[record]]
smiles_notation = "Nc1ccc(-n2cc(-c3ccc(C(=O)N[C@H]4CCOC4=O)cc3)nn2)cc1"
measurement_name = "log10 of IC50"
reported_value = 1.98

[[record]]
smiles_notation = "CCCc1cn(CC(=O)N[C@H]2CCOC2=O)nn1"
measurement_name = "log10 of IC50"
reported_value = 1.85

[[record]]
smiles_notation = "O=C(Cn1cc(C2CC2)nn1)N[C@H]1CCOC1=O"
measurement_name = "log10 of IC50"
reported_value = 1.94

[[record]]
smiles_notation = "[N-]=[N+]=Nc1cccc(C(=O)N[C@H]2CCOC2=O)c1"
measurement_name = "log10 of IC50"
reported_value = 2.35

[[record]]
smiles_notation = "O=C(Cn1cc(C2CCCC2)nn1)N[C@H]1CCOC1=O"
measurement_name = "log10 of IC50"
reported_value = 1.70

[[record]]
smiles_notation = "O=C(Cn1cc(C2CCCCC2)nn1)N[C@H]1CCOC1=O"
measurement_name = "log10 of IC50"
reported_value = 2.53

[[record]]
smiles_notation = "[N-]=[N+]=Nc1ccc(C(=O)N[C@H]2CCOC2=O)cc1"
measurement_name = "log10 of IC50"
reported_value = 2.39

[[record]]
smiles_notation = "O=Cc1cccc(-n2cc(CCC(=O)N[C@H]3CCOC3=O)nn2)c1"
measurement_name = "log10 of IC50"
reported_value = 0.70

[[record]]
smiles_notation = "CCCCCCc1cn(CC(=O)N[C@H]2CCOC2=O)nn1"
measurement_name = "log10 of IC50"
reported_value = 2.76

[[record]]
smiles_notation = "O=C(Cn1cc(-c2ccsc2)nn1)N[C@H]1CCOC1=O"
measurement_name = "log10 of IC50"
reported_value = 1.74

[[record]]
smiles_notation = "CCCCc1cn(CC(=O)N[C@H]2CCOC2=O)nn1"
measurement_name = "log10 of IC50"
reported_value = 2.88

[[record]]
smiles_notation = "O=C(Cn1cc(-c2ccccc2)nn1)N[C@H]1CCOC1=O"
measurement_name = "log10 of IC50"
reported_value = 2.28

[[record]]
smiles_notation = "O=C(Cn1cc(CSc2ccccc2)nn1)N[C@H]1CCOC1=O"
measurement_name = "log10 of IC50"
reported_value = 2.78

